- Assay notes: in vitro
- Format: cell-based
- Condition summary: human
- Experimental: Currently commercially available human gastric cancer cell lines (FU97), human alveolar basal epithelial adenocarcinoma cell lines (A549), human breast cancer cell lines (MDA-MB-231), and human melanoma cell lines (A375) were prepared as test tumor cells. […] Then, the absorbance at a wavelength of 450 nm (value corrected by the absorbance at a wavelength of 620 nm: A450-A620) was measured based on the reduction of the tetrazolium salt in the culture solution. […]
Ends that are not written are not given here.
Measurement type: viability at 48 h, 6.25 μM (%)
Give just the number in %; leave the unit off.

Q. Look up and report measured viability at 48 h, 6.25 μM for this entry: MACLGFQRHKAQLNLATRTWPCTLLFFLLFIPVFCKKRTLRKTDRKKR-NH2 (cysteines drawn unpaired) [Sample 1]
A. 130

----------
- Assay notes: in vitro
- Type: cell-based
- Condition summary: human
Ends that are not written are not given here.
Measurement type: viability at 48 h, 25 μM
Hey, just the number and the unit after it is fine.

Q. Determine its reported viability at 48 h, 25 μM: MACLGFQRHKAQLNLATRTWPCTLLFFLLFIPVFCKKRTLRKTDRKKR-NH2 (cysteines drawn unpaired) [Sample 1]
A. 82%

----------
- Assay notes: in vitro
- Assay type: cell-based
- Condition summary: human
Ends that are not written are not given here.
Measurement type: viability at 48 h, 12.5 μM
Express your answer as a number followed by its unit.

Q. Consider the substance MACLGFQRHKAQLNLATRTWPCTLLFFLLFIPVFCKKRTLRKTDRKKR-NH2 (cysteines drawn unpaired) [Sample 1] and give its recorded viability at 48 h, 12.5 μM.
A. 114%
